Entry source: PubChem BioAssay (NCI)

# Tested on: CAKI-1 renal
# procedure.summary: NCI tumour cell line growth inhibition, 48 h
measurement.name: TGI

In plain terms, Oc1ccccc1-c1nn(CNc2cccc(Cl)c2)c(=S)o1 has a documented TGI of > 100 µM

Short answer for CC1(C)COC(C23C4C5C2C2C3C4C52I)=N1 (stereo unspecified) : TGI was > 100 µM

Sure, the documented TGI for CC(=O)OC(/C=C1/C=CC(=O)O1)COC(=O)c1ccccc1 (stereo unspecified) is > 31.2 µM

Recorded TGI (molecule O=C1/C(=C/c2cccnc2)C(n2cccc2)c2c(Br)sc(Br)c21 (stereo unspecified) ): 7.51 µM

response.value for C/C=C(\C)C(=O)N[C@H]1CC[C@]2(C)C3CC[C@@]4(C)C(CC[C@@H]4C(C)N(C)C)C3CCC2[C@H]1OC(C)=O (stereo partly specified) (field: TGI) = 4.86 µM

Input C#CCOC(=O)c1ccccc1O . Output TGI: > 100 µM
